Values compiled from ChEMBL document CHEMBL4513216.

- test-summary: Toxicity liver stage against HepG2, at 10uM
- Assay type: cell-based
- Set-up: test concentration 10 uM, cell line HepG2-A16-CD81EGFP
- measurement-context: human, HepG2-A16-CD81EGFP cells; read-out: INHIBITION
measured-metric: cytotoxicity at 10 µM (%)
One number for each entry, in %.

# example entries with known answers
| molecule | cytotoxicity at 10 µM / % |
| --- | --- |
| O=C(NCC1(c2ccc(F)cc2)CCC1)N1CCC2(C1)OCCO2 | 2.58 |
| Cc1ccnc(CNC(=O)C2CC(=O)N(CCN(C)C)C2)c1 (centres undefined) | -5.79 |
| N#Cc1cccnc1NCCNC(=O)N1CCSCC1 | -1.22 |

Consider the following items and state reported cytotoxicity at 10 µM for each.
1. Cc1ccc(S(=O)(=O)CCC(=O)NCc2nnc3n2CCC3)cc1
2. CC(C)(C)C(=O)N[C@H]1C[C@@H](Cc2cc(CN3CCOCC3)on2)C1(C)C
3. O=C1N(CCCc2ccccc2)CCCC1(O)CN1CCC(CO)CC1 (centres undefined)

Return:
1: 3.55; 2: -7.15; 3: -10.5

Consider the following items and state reported cytotoxicity at 10 µM for each.
1. CCC1CN(CCCNS(C)(=O)=O)c2ccccc2O1 (centres undefined)
2. O=C(Nc1ccc2ncsc2c1)N1CCCN([C@H]2COC[C@@H]2O)CC1
3. CCS(=O)(=O)NCCN(CCO)C1CCc2ccccc21 (centres undefined)
4. Cc1ccc(C(=O)NCCNC(=O)N(C)C(C)c2ccccn2)cc1 (centres undefined)

Return:
[-7.03, -53.6, 14.4, 7.97]

Consider the following items and state reported cytotoxicity at 10 µM for each.
1. COc1cc(N2CCC3(CC2)CC(N2CCOCC2)CO3)ncn1 (centres undefined)
2. c1cnc(-c2cnc(N3CCSCC3)nc2C2CC2)cn1
3. O=C(CCc1cccs1)N1CCCC(n2ccnc2)C1 (centres undefined)
4. Cn1ccc2cc(C(=O)Nc3nc[nH]n3)ccc21

Return:
1. 3.44
2. 17.3
3. -1.13
4. 1.69

---

- test-summary: Toxicity liver stage against HepG2, at 10uM
- Assay type: cell-based
- Set-up: test concentration 10 uM, cell line HepG2-A16-CD81EGFP
- measurement-context: human, HepG2-A16-CD81EGFP cells; read-out: INHIBITION
measured-metric: cytotoxicity at 10 µM (%)
Give bare numbers, in %.

# example entries with known answers
| compound | cytotoxicity at 10 µM (%) |
| --- | --- |
| Cc1nc(Nc2ccccn2)cc(C2CCCN2C2CCOCC2)n1 (configuration not stated) | -18.1 |
| CC(C)C[C@H](N)C(=O)N1CC2(CCNCC2)c2cc(Cl)ccc21 | -8.34 |
| N#Cc1ccnc(N2CCC(NCCN3CCCC3)CC2)c1 | -53 |
| COC(=O)C1CN(CC(=O)Nc2ccccc2Cl)c2ccccc21 (configuration not stated) | 14.3 |
| CCc1nc(C)c(C(=O)NCCNC(=O)Cc2cccc(F)c2)s1 | 1.98 |
| COC(=O)c1ccc(NC(=O)[C@@H]2CCCN2C(=O)c2ccco2)s1 | -3.45 |
| COC[C@@]12CCO[C@@H]1CCN(Cc1sccc1C)C2 | -109 |
| COCCN1CCC(NCc2cccnc2)C1 (configuration not stated) | -10.4 |
| Cc1nnc2n1CCN(Cc1csc(-c3ccsc3)n1)C2 | -12.4 |
| CCCS(=O)(=O)NC(=O)c1sc(C2CCCC2)nc1C | 0.521 |

Consider the following items and state reported cytotoxicity at 10 µM for each.
1. CC(NCc1ccncc1)c1cc2c(cc1Br)OCCO2 (configuration not stated)
2. OC(COCc1ccccc1)CN1CC(n2cccn2)C1 (configuration not stated)
3. CC(C)c1ccc(S(=O)(=O)N2CCCC3(CCCN3S(C)(=O)=O)C2)cc1 (configuration not stated)
4. CCC(C(=O)Nc1ccc2c(C)n[nH]c2c1)N1CCCC1=O (configuration not stated)
5. CN1C(=O)C(c2ccccc2)CC12CCN(CCN1CCCC1=O)CC2 (configuration not stated)
6. c1cnnc(N2CCCC(NCc3cccc4c3OCCO4)C2)c1 (configuration not stated)
7. CN(C)CCn1ccnc1C1CCCN(C(=O)CCc2cccnc2)C1 (configuration not stated)

Return:
1. -1.41
2. 1.95
3. -0.96
4. -48.9
5. -14.6
6. -7.99
7. -3.64

Consider the following items and state reported cytotoxicity at 10 µM for each.
1. CC(C)(C)n1ncc2c1NC(=O)CC2c1cccc(O)c1 (configuration not stated)
2. O=C1CN(S(=O)(=O)c2ccc(F)cc2)CC(O)CN1CC1CC1 (configuration not stated)
3. CCNc1cc2c(nn1)CCN(C(=O)c1ccoc1)C2
4. CC(=O)N1CCO[C@@H]2CN(C(=O)NCc3ccccc3)CC[C@@H]2C1
5. CC(C)CC(=O)N1CCC2(CC1)[C@@H]1CN(C(=O)N(C)C)C[C@@H]1C(=O)N2C

Return:
-6.36
0.227
-6.9
-97.7
4.85
